Taken from ChEMBL document CHEMBL1157905.

Exercise: for every item that follows, state its recorded MIC.
# Tested on: Streptococcus pneumoniae
# TEST DETAILS: Antimicrobial activity against erythromycin-susceptible Streptococcus pneumoniae ATCC 49619
# Type: functional
Enter your answer as a number in µg/mL; do not include the unit.

Summary for this compound, CC[C@H]1OC(=O)[C@H](C)[C@@H](O/C=C\Cc2cncc3ccccc23)[C@H](C)[C@@H](O[C@@H]2O[C@H](C)C[C@H](N(C)C)[C@H]2O)[C@](C)(OC)C[C@@H](C)/C(=N\OCc2ccccc2Cl)[C@H](C)[C@H]2OC(=O)O[C@@]21C : MIC is 0.25

Summary for this compound, CC[C@H]1OC(=O)[C@H](C)[C@@H](OC/C=C/c2cncc3ccccc23)[C@H](C)[C@@H](O[C@@H]2O[C@H](C)C[C@H](N(C)C)[C@H]2O)[C@](C)(OC)C[C@@H](C)/C(=N\OCc2ccccc2Cl)[C@H](C)[C@H]2OC(=O)O[C@@]21C : MIC is 4

Summary for this compound, CC[C@H]1OC(=O)[C@H](C)[C@@H](O[C@H]2C[C@@](C)(OC)[C@@H](O)[C@H](C)O2)[C@H](C)[C@@H](O[C@@H]2O[C@H](C)C[C@H](N(C)C)[C@H]2O)[C@](C)(O)C[C@@H](C)CN(C)[C@H](C)[C@@H](O)[C@]1(C)O : MIC is 0.064

Summary for this compound, CC[C@H]1OC(=O)[C@H](C)[C@@H](O[C@H]2C[C@@](C)(OC)[C@@H](O)[C@H](C)O2)[C@H](C)[C@@H](O[C@@H]2O[C@H](C)C[C@H](N(C)C)[C@H]2O)[C@](C)(OC)C[C@@H](C)C(=O)[C@H](C)[C@@H](O)[C@]1(C)O : MIC is 0.032
